Where these numbers come from: paper PMC5540273

system: MET; conditions: concentration: 1 μM, replicates: in singlicate; n = 1;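 further: KINOMEscan kinase panel screen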
Each record here notes measured %Inh.
measurement_name: %Inh (%)

> print(dat)
                                   compound  recorded.number
1  CS(=O)(=O)c1ccc(-c2c(-c3ncn[nH]3)sc(N3CCOCC3)c2C#N)cc1                0
2  CCCc1ccc(S(=O)(=O)NC2CCN(c3ccnc(Nc4ccc(F)cc4)n3)C2)cc1 (stereo not drawn)                0
3  Cl.O=C(Nc1cccc(-c2nn3ncccc3c2-c2ccnc(Nc3cccnc3)n2)c1)c1c(F)cccc1F                0
4  Cc1ccc(NC(=O)Nc2cc(C(C)(C)C)nn2-c2ccccc2)cc1                0
5  COc1ccc(C2=C(Nc3cccc(C(=O)O)c3)C(=O)NC2=O)cc1                0
6  O=C(Nc1n[nH]c2nc(-c3nccs3)c(Br)cc12)C1CC1                0
7  Cc1nnc(-c2ccc3occ(-c4ccc(S(C)=O)cc4)c3c2)[nH]1 (stereo not drawn)                5
8  Cc1cccc(-c2nc(-c3ccc(S(C)(=O)=O)cc3)sc2-c2ccnc(NCCc3ccccc3)c2)c1                0
9  Fc1cc(Cl)ccc1Nc1ccnc2cc(-c3ccc(CN4CCCCC4)o3)ccc12                0
